# Tested on: Staphylococcus aureus
# Assay remarks: Antibacterial activity against Staphylococcus aureus after 24 hrs by MTT assay
# Type: functional
Strictly below 10 µg/mL in MIC: yes. Otherwise: no.

[[record]]
compound = "O=C(Nc1ccccc1)N(Cc1cc(Br)cc(Br)c1O)c1ccc(Cl)cc1"
classification = "yes"

[[record]]
compound = "O=C(Nc1ccccc1)N(Cc1cc(Br)ccc1O)c1ccccc1F"
classification = "no"

[[record]]
compound = "O=C(Nc1ccccc1)N(Cc1cc(Br)cc(Br)c1O)c1ccc(F)cc1"
classification = "no"

[[record]]
compound = "NC[C@H]1O[C@H](O[C@H]2[C@H](O)[C@@H](O[C@H]3O[C@H](CO)[C@@H](O)[C@H](N)[C@H]3O)[C@H](N)C[C@@H]2N)[C@H](N)[C@@H](O)[C@@H]1O [BEKANAMYCIN]"
classification = "yes"

[[record]]
compound = "Oc1c(Br)cc(Br)cc1CNc1ccccc1Cl"
classification = "no"

[[record]]
compound = "O=C(Nc1ccccc1)N(Cc1cc(Br)cc(Br)c1O)c1ccc(Br)cc1"
classification = "no"

[[record]]
compound = "O=C(Nc1ccccc1)N(Cc1cc(Br)ccc1O)c1ccccc1Cl"
classification = "yes"

[[record]]
compound = "Oc1c(Br)cc(Br)cc1CNc1ccc(F)cc1"
classification = "no"

[[record]]
compound = "O=C(Nc1ccccc1)N(Cc1cc(Br)cc(Br)c1O)c1ccccc1Cl"
classification = "no"

[[record]]
compound = "COc1ccc(NCc2cc(Br)ccc2O)cc1"
classification = "no"

